B1: LINE1-mini (parent)
chain: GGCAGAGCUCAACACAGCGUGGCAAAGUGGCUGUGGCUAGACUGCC

Variants of: B1
protocol_summary: self-cleavage, relative activity (ratio to wild type); higher = more cleavage; in vitro, sequencing; the parent is a self-cleaving ribozyme
Lab note: anything with self-cleavage at or over 0.1 counts as True; the rest go in False.

A selection of reference data follows.
U28A G35U = True
G1A A12U = True

Req: Could you tell me if the measured self-cleavage of A12U G40A reaches 0.1 or more?
Resp: True
